List of solubility thermodynamic values.
# Assay Overview: Thermodynamic aqueous solubility was determined
# Assay type: physicochemical
# Run Conditions: buffer
Measurement Label: solubility thermodynamic (µg/mL)

>>> print(df.to_string())
                           smiles_structure  unit_of_measurement  observed_value
0  C#CC[C@@H](C(=O)N[C@H](/C=C/C(=O)OC1CCCC1)C[C@@H]1CCNC1=O)n1cccc(NC(=O)c2cc(C)on2)c1=O                µg/mL              15
1  CCOC(=O)/C=C/[C@H](C[C@@H]1CCNC1=O)NC(=O)[C@H](Cc1ccc(F)c(F)c1)n1cccc(NC(=O)c2cc(C)on2)c1=O                µg/mL              25
2  CC[C@@H](C(=O)N[C@H](/C=C/C(=O)OC1CCC1)C[C@@H]1CCNC1=O)n1cccc(NC(=O)c2cc(C)on2)c1=O                µg/mL             192
3  C#CC[C@@H](C(=O)N[C@H](/C=C/C(=O)OCc1ccccc1)C[C@@H]1CCNC1=O)n1cccc(NC(=O)c2cc(C)on2)c1=O                µg/mL              22
4  C#CC[C@@H](C(=O)N[C@H](/C=C/C(=O)OC1CCC1)C[C@@H]1CCNC1=O)n1cccc(NC(=O)c2cc(C)on2)c1=O                µg/mL              25
5  CC[C@@H](C(=O)N[C@H](/C=C/C(=O)OCc1ccccc1)C[C@@H]1CCNC1=O)n1cccc(NC(=O)c2cc(C)on2)c1=O                µg/mL              41
